Experiment: 4-week oral toxicology in rats (with FOB)
Conditions: male, rat, plasma, po, 2000 mg/kg/day, Cmax, Male rats, 2000 mg/kg/day oral gavage, Day 28; mean (SD)

| smi | Cmax [µM] |
| --- | --- |
| CC(C)c1ccc(CC(=O)N[C@H](C)c2ccc(OCC(F)(F)F)cn2)cc1 | 28.9 |

----------
Test: in vivo
Details: male, rat, po, 15 mg/kg/day

| compound | unit | half-life |
| --- | --- | --- |
| CC(C)c1ccc(CC(=O)N[C@H](C)c2ccc(OCC(F)(F)F)cn2)cc1 [CX-8998] | h | 2.87 |

----------
Assay: in vivo
Details: female, Beagle, dog, brain (thalamus), po, 300 mg/kg

| compound | Kp at 24 h |
| --- | --- |
| C=C(C)c1ccc(CC(=O)N[C@H](C)c2ccc(OCC(F)(F)F)cn2)cc1 [M01] | 0.772 |
